Molecular target: Adenosine receptor A3 (Homo sapiens, UniProt P0DMS8)
Sequence (P0DMS8 whole entry): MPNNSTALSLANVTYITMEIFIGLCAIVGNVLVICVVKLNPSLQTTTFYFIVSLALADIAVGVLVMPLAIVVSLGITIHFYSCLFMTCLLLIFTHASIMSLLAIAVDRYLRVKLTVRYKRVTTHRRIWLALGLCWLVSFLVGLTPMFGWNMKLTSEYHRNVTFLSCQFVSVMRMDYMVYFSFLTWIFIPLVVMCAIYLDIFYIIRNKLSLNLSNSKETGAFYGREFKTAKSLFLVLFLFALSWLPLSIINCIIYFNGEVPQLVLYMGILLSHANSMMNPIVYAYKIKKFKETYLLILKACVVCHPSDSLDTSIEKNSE
Assay: Displacement of [3H]PSB-11 from human recombinant adenosine A3 receptor expressed in CHO cells
Format: cell-based
parameter: Ki

Here is how some molecules turned out for Ki.
[
  {
    "record-smiles": "CCn1c(=O)[nH]c2nc(-c3ccc(S(=O)(=O)N4CCN(Cc5ccc(F)cc5)CC4)cc3)[nH]c2c1=O",
    "result": "> 1000 nM"
  },
  {
    "record-smiles": "CCn1c(=O)[nH]c2nc(-c3ccc(S(=O)(=O)N4CCN(Cc5ccc(OC)cc5)CC4)cc3)[nH]c2c1=O",
    "result": "> 1000 nM"
  },
  {
    "record-smiles": "CCCn1c(=O)[nH]c2nc(-c3ccc(S(=O)(=O)N4CCN(Cc5ccc(Cl)cc5)CC4)cc3)[nH]c2c1=O",
    "result": "> 1000 nM"
  },
  {
    "record-smiles": "CCCn1c(=O)[nH]c2nc(-c3ccc(S(=O)(=O)N4CCN(CCc5ccccc5)CC4)cc3)[nH]c2c1=O",
    "result": "> 1000 nM"
  }
]

The record that follows has no Ki shown yet.
Query string: Write down the reported Ki of `CCn1c(=O)[nH]c2nc(-c3ccc(S(=O)(=O)N4CCN(Cc5ccc(Cl)cc5)CC4)cc3)[nH]c2c1=O` , test system: Adenosine receptor A3 (Homo sapiens, UniProt P0DMS8).
Result string: > 10000 nM

* * *

biological target: Adenosine receptor A2a (Rattus norvegicus); experiment: Displacement of [3H]MSX-2 from rat brain striatum adenosine A2A receptor
Sequence (P30543 whole entry): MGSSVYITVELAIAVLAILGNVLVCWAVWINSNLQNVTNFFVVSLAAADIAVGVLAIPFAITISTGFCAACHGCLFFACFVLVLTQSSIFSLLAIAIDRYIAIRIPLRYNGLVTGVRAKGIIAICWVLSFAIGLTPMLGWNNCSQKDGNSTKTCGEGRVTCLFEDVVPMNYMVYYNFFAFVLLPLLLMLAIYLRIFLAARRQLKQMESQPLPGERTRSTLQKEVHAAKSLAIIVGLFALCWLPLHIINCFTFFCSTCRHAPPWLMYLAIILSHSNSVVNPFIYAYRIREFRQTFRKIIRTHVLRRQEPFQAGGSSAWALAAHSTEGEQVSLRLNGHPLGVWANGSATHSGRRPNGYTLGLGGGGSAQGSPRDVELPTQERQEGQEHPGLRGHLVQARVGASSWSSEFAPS
parameter: Ki (nM)

Here is how some molecules turned out for Ki.
[
  {
    "record-smiles": "CCCn1c(=O)[nH]c2nc(-c3ccc(S(=O)(=O)N4CCN(c5ccc(OC)cc5)CC4)cc3)[nH]c2c1=O",
    "Ki, nM": 41.5
  },
  {
    "record-smiles": "CCn1c(=O)[nH]c2nc(-c3ccc(S(=O)(=O)N4CCN(Cc5ccc(OC)cc5)CC4)cc3)[nH]c2c1=O",
    "Ki, nM": 914
  },
  {
    "record-smiles": "CCCn1c(=O)[nH]c2nc(-c3ccc(S(=O)(=O)NC4CCN(Cc5ccccc5)CC4)cc3)[nH]c2c1=O",
    "Ki, nM": 136
  },
  {
    "record-smiles": "CCn1c(=O)[nH]c2nc(-c3ccc(S(=O)(=O)N4CCN(Cc5ccc6c(c5)OCO6)CC4)cc3)[nH]c2c1=O",
    "Ki, nM": 436
  }
]

I. CCn1c(=O)[nH]c2nc(-c3ccc(S(=O)(=O)N4CCN(Cc5cccc(F)c5)CC4)cc3)[nH]c2c1=O
II. CCn1c(=O)[nH]c2nc(-c3ccc(S(=O)(=O)N4CCN(Cc5ccc(F)cc5)CC4)cc3)[nH]c2c1=O
Query string: Returns: the argument ( I or II ) having the larger Ki. Bench note: the answer is the label of the chosen record.
Result string: I
(I: 388 nM, II: 40.2 nM)
